Entries and their IC50 at 24 h values follow.
assay: in vitro; type: cell-based; conditions: Chinese hamster, Cytotox. CHO-K1

| Compound | IC50 at 24 h |
| --- | --- |
| COCC(=O)c1ccc(O)c2c1C[C@H]1C[C@H]3[C@H](N(C)C)C(O)=C(C(N)=O)C(=O)[C@@]3(O)C(O)=C1C2=O | > 53.4 µM |
| COCCCNC(=O)c1cccc(-c2ccc(O)c3c2CC2CC4[C@H](N(C)C)C(O)=C(C(N)=O)C(=O)[C@@]4(O)C(O)=C2C3=O)c1 (stereo partly drawn) | > 15.3 µM |
| CN(C)[C@@H]1C(O)=C(C(N)=O)C(=O)[C@@]2(O)C(O)=C3C(=O)c4c(O)ccc(-c5ccc(CN6CCOCC6)o5)c4C[C@H]3C[C@@H]12 | > 32.6 µM |
| CC(=O)NCCNC(=O)c1cccc(-c2ccc(O)c3c2C[C@H]2C[C@H]4[C@H](N(C)C)C(O)=C(C(N)=O)C(=O)[C@@]4(O)C(O)=C2C3=O)c1 | > 13 µM |
| CN(C)CCNC(=O)c1ccc(-c2ccc(O)c3c2C[C@H]2C[C@H]4[C@H](N(C)C)C(O)=C(C(N)=O)C(=O)[C@@]4(O)C(O)=C2C3=O)cc1 | > 43.5 µM |
| CN(C)[C@@H]1C(O)=C(C(N)=O)C(=O)[C@@]2(O)C(O)=C3C(=O)c4c(O)ccc(-c5cccc(C(=O)NCc6ccco6)c5)c4C[C@H]3C[C@@H]12 | > 14.6 µM |

###

system: 3T3 fibroblast cells; test: In vitro phototoxicity assay (neutral red; UV light-treated vs dark control plates); type: cell-based; settings: UV light 50 minutes
Entries and their Photo Toxicity UV Tox50 values follow.

| Chemical String | Target Or Test System | Photo Toxicity UV Tox50 |
| --- | --- | --- |
| CC(=O)NCCC(=O)c1ccc(O)c2c1C[C@H]1C[C@H]3[C@H](N(C)C)C(O)=C(C(N)=O)C(=O)[C@@]3(O)C(O)=C1C2=O | 3T3 fibroblast cells | >159.57 µM |
| CN(C)[C@@H]1C(O)=C(C(N)=O)C(=O)[C@@]2(O)C(O)=C3C(=O)c4c(O)ccc(C(=O)CNCc5cccn5C)c4C[C@H]3C[C@@H]12 | 3T3 fibroblast cells | >133.53 µM |
| CN(C)[C@@H]1C(O)=C(C(N)=O)C(=O)[C@@]2(O)C(O)=C3C(=O)c4c(O)ccc(C(=O)CNCC(C)(C)C)c4C[C@H]3C[C@@H]12 | 3T3 fibroblast cells | >138.32 µM |
| COCCNCc1ccc(-c2ccc(O)c3c2C[C@H]2C[C@H]4[C@H](N(C)C)C(O)=C(C(N)=O)C(=O)[C@@]4(O)C(O)=C2C3=O)cc1 | 3T3 fibroblast cells | >146.03 µM |
| COCCN(C)CC(=O)c1ccc(O)c2c1C[C@H]1C[C@H]3[C@H](N(C)C)C(O)=C(C(N)=O)C(=O)[C@@]3(O)C(O)=C1C2=O | 3T3 fibroblast cells | >154.09 µM |
| CC(C)N(CCNC(=O)c1cccc(-c2ccc(O)c3c2C[C@H]2C[C@H]4[C@H](N(C)C)C(O)=C(C(N)=O)C(=O)[C@@]4(O)C(O)=C2C3=O)c1)C(C)C | 3T3 fibroblast cells | >133.57 µM |
